B1: PLAGL1 (parent)
chain: DPNKMAFGCEECGKKYNTMLGYKR

variants of: B1; experiment: protein stability index of a GFP-peptide fusion (GPS, HEK-293T) (PSI 1-6); higher = more stable; conditions: c terminus: a fixed tail appended;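 also: lentivirally expressed fusions sorted by FACS into six bins by GFP to DsRed ratio, PSI derived from sequencing read proportions per bin multiplied by bin number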
measured_endpoint: protein stability index

Q: For `C12P` , what is its reported protein stability index?
A: 4.01

Q: For `K23R` , what is its reported protein stability index?
A: 2.35

Q: For `K23A` , what is its reported protein stability index?
A: 1.98

Q: For `M19V` , what is its reported protein stability index?
A: 2.14

Q: For `K15P` , what is its reported protein stability index?
A: 2.81

Q: For `T18G` , what is its reported protein stability index?
A: 3.07

Q: For `N3A` , what is its reported protein stability index?
A: 2.21

Q: For `F7Q` , what is its reported protein stability index?
A: 3.45

Q: For `F7K` , what is its reported protein stability index?
A: 2.31

Q: For `R24D` , what is its reported protein stability index?
A: 3.65

Q: For `Y16C` , what is its reported protein stability index?
A: 2.58

Q: For `Y22D` , what is its reported protein stability index?
A: 3.5

Q: For `G13Q` , what is its reported protein stability index?
A: 2.35

Q: For `N3E` , what is its reported protein stability index?
A: 2.52

Q: For `E11G` , what is its reported protein stability index?
A: 1.77

Q: For `D1N` , what is its reported protein stability index?
A: 3.64

Q: For `K15E` , what is its reported protein stability index?
A: 3.03

Q: For `K4L` , what is its reported protein stability index?
A: 2.85

Q: For `G21I` , what is its reported protein stability index?
A: 2.26

Q: For `C9D` , what is its reported protein stability index?
A: 3.78

Q: For `K4S` , what is its reported protein stability index?
A: 2.48

Q: For `N17C` , what is its reported protein stability index?
A: 2.2

Q: For `C12L` , what is its reported protein stability index?
A: 3.3

Q: For `N3G` , what is its reported protein stability index?
A: 2.8

Q: For `M5P` , what is its reported protein stability index?
A: 2.2

Q: For `C9M` , what is its reported protein stability index?
A: 3.16

Q: For `Y22P` , what is its reported protein stability index?
A: 2.02

Q: For `K15W` , what is its reported protein stability index?
A: 2.27

Q: For `M19I` , what is its reported protein stability index?
A: 2.25

Q: For `G8I` , what is its reported protein stability index?
A: 2.76

Q: For `K4Y` , what is its reported protein stability index?
A: 2.59

Q: For `N3T` , what is its reported protein stability index?
A: 2.79

Q: For `F7G` , what is its reported protein stability index?
A: 3.17

Q: For `G8N` , what is its reported protein stability index?
A: 2.74

Q: For `K15D` , what is its reported protein stability index?
A: 3.12

Q: For `R24E` , what is its reported protein stability index?
A: 4.57

Q: For `A6F` , what is its reported protein stability index?
A: 2.32

Q: For `R24C` , what is its reported protein stability index?
A: 2.58

Q: For `P2R` , what is its reported protein stability index?
A: 3.98

Q: For `K14D` , what is its reported protein stability index?
A: 2.98

Q: For `K4H` , what is its reported protein stability index?
A: 2.35

Q: For `E11L` , what is its reported protein stability index?
A: 3.19

Q: For `K4D` , what is its reported protein stability index?
A: 2.53

Q: For `K15M` , what is its reported protein stability index?
A: 1.73

Q: For `G8M` , what is its reported protein stability index?
A: 1.96

Q: For `K4T` , what is its reported protein stability index?
A: 2.61
